Tested on: red blood cells (mechanically defibrinated sheep blood)
TEST: Hemolysis assay (cell lysis)
Type: cell-based
Design: unit not given here
EXPERIMENTAL SETUP: Concentration 63 μM; 1 hour, 37° C.
Protocol: The effects of the compounds described herein to lyse cells was evaluated in this example. Hemolysis assays were performed on mechanically defibrinated sheep blood (Hemostat Labs: DSB030). 1.5 mL of blood was placed into a microcentrifuge tube and centrifuged at 10,000 rpm for ten minutes. The supernatant was removed and then the cells were resuspended with 1 mL of phosphate-buffered saline (PBS). […] The absorbance of the supernatant was measured with a UV spectrometer at a 540 nm wavelength. […]
Recorded red blood cell lysis by entry
EXPERIMENTAL ENDPOINT: red blood cell lysis

| COMPOUND | VALUE MEASURED |
| --- | --- |
| CC(C)(C)c1ccc(CCc2ccc(C(C)(C)C)c(O)c2)cc1O [Compound C2] | 0.29 |
| COc1cc(CCc2ccc(C(C)(C)C)c(O)c2)ccc1C(C)(C)C [Compound 1H-2] | 0.02 |
| CC(C)(C)c1ccc(CCc2cccc(O)c2)cc1O [Compound 1H-3] | 0.00 |
| COc1cccc(CCc2ccccc2O)c1 [Compound 6] | 0.07 |
| CC(C)(C)c1ccc(Cc2ccc(C(C)(C)C)c(O)c2)cc1O [Compound 3N, 5,5′-methylenebis(2-(tert-butyl)phenol)] | 0.38 |

====

Tested on: red blood cells (mechanically defibrinated sheep blood)
TEST: Hemolysis assay (cell lysis)
Format: cell-based
Parameters: unit not given here
EXPERIMENTAL SETUP: Concentration 2 μM; 1 hour, 37° C.
Recorded red blood cell lysis by entry
EXPERIMENTAL ENDPOINT: red blood cell lysis

| COMPOUND | VALUE MEASURED |
| --- | --- |
| CC(C)(C)c1ccc(Cc2ccc(C(C)(C)C)c(O)c2)cc1O [Compound 3N, 5,5′-methylenebis(2-(tert-butyl)phenol)] | −0.02 |
| CC(C)(C)c1ccc(CCc2cccc(O)c2)cc1O [Compound 1H-3] | −0.03 |
| COc1cc(CCc2ccc(C(C)(C)C)c(O)c2)ccc1C(C)(C)C [Compound 1H-2] | −0.03 |
| CC(C)(C)c1ccc(CCc2ccc(C(C)(C)C)c(O)c2)cc1O [Compound C2] | −0.02 |
| COc1cccc(CCc2ccccc2O)c1 [Compound 6] | −0.03 |

====

Recorded red blood cell lysis by entry
Tested on: red blood cells (mechanically defibrinated sheep blood)
TEST: Hemolysis assay (cell lysis)
Assay type: cell-based
Set-up: unit not given here
EXPERIMENTAL SETUP: Concentration 0.5 μM; 1 hour, 37° C.
EXPERIMENTAL ENDPOINT: red blood cell lysis

| COMPOUND | VALUE MEASURED |
| --- | --- |
| COc1cccc(CCc2ccccc2O)c1 [Compound 6] | −0.02 |
| CC(C)(C)c1ccc(Cc2ccc(C(C)(C)C)c(O)c2)cc1O [Compound 3N, 5,5′-methylenebis(2-(tert-butyl)phenol)] | −0.02 |
| CC(C)(C)c1ccc(CCc2ccc(C(C)(C)C)c(O)c2)cc1O [Compound C2] | 0.01 |
| CC(C)(C)c1ccc(CCc2cccc(O)c2)cc1O [Compound 1H-3] | 0.00 |
| COc1cc(CCc2ccc(C(C)(C)C)c(O)c2)ccc1C(C)(C)C [Compound 1H-2] | −0.02 |

====

Recorded red blood cell lysis by entry
System: red blood cells (mechanically defibrinated sheep blood)
TEST: Hemolysis assay (cell lysis)
Type: cell-based
Set-up: unit not given here
EXPERIMENTAL SETUP: Concentration 4 μM; 1 hour, 37° C.
EXPERIMENTAL ENDPOINT: red blood cell lysis

| COMPOUND | VALUE MEASURED |
| --- | --- |
| CC(C)(C)c1ccc(CCc2cccc(O)c2)cc1O [Compound 1H-3] | −0.03 |
| COc1cc(CCc2ccc(C(C)(C)C)c(O)c2)ccc1C(C)(C)C [Compound 1H-2] | 0.16 |
| COc1cccc(CCc2ccccc2O)c1 [Compound 6] | 0.35 |
| CC(C)(C)c1ccc(CCc2ccc(C(C)(C)C)c(O)c2)cc1O [Compound C2] | −0.01 |
| CC(C)(C)c1ccc(Cc2ccc(C(C)(C)C)c(O)c2)cc1O [Compound 3N, 5,5′-methylenebis(2-(tert-butyl)phenol)] | 0.11 |
